test: Mouse Fast PK/BBB; format: in vivo, Male C57bl/6j mice; details: male, C57bl/6j, brain, oral, Dose 30 mg/kg, read-out: BRAIN Mean Conc. (ng/mL) ± Std. Dev
measurement-label: concentration at 1 hr (ng/mL)
One number for each entry, in ng/mL.

• NC(=O)c1cc(S(=O)(=O)N2CCC(c3c4cc(C(c5ccc(Cl)cc5)c5ccc(Cl)cc5)ccc4nn3C3CC3)CC2)ccc1Cl [Compound 169] = 29.4

# input for lookup
*Q* Returns the measured concentration at 1 hr for the input compound. Input: O=S(=O)(c1cccc(O)c1)N1CCC(c2c3cc(C(c4ccc(Cl)cc4)c4ccc(Cl)cc4)ccc3nn2C2CC2)CC1 [Compound 151]
*A* 41.8

Just for reference, patent US9682940B2 is where these values come from.
